Consider the following molecules and their measured pIC50 readings.
# tgt: PD-1/PD-L1 (Homo sapiens, UniProt Q9NZQ7)
# Sequence (Q9NZQ7 19-238 limits assumed): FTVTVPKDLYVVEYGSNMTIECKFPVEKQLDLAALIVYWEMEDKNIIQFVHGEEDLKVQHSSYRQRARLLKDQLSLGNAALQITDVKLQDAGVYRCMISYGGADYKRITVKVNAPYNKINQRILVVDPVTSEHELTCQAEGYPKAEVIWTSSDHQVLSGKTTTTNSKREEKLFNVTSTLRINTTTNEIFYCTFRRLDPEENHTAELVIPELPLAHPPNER
# measurement-protocol: PD-1/PD-L1 biochemical protein-protein interaction assay (ALPHA)
# setup-conditions: 0.3 nM His tagged PD-L1, 2.5 nM biotinylated Fc-PD-1, 60 minutes at 25° C., read-out: IC50 PD-L1-PD-1 Alpha IC50-mono PD-L1-fcP-D1
pIC50: −log10 of the molar value.
readout-type: pIC50

In [3]: df
Out[3]:
                                   molecule  reported_result
0  COc1nc(-c2cccc(-c3cccc4c3CC[C@@H]4Oc3nc(OC)c(CN4CC[C@H](C(=O)O)C4)cc3Cl)c2Cl)ccc1CN1CC(CO)C1 [Example 704]            10.19
1  Cc1c(COc2cc(OCc3cncc(C#N)c3)c(CNC[C@@H](O)CC(=O)O)cc2Cl)cccc1-c1cccc(-n2cc(CN3CCCC3)nn2)c1C [Example 449]             9.19
2  Cc1c(COc2ccc(CNC[C@@H](O)CC(=O)O)cc2)cccc1-c1cccc(COc2cc(OCc3cncc(C#N)c3)c(CNC[C@@H](O)CC(=O)O)cc2Cl)c1C [Example 17]             9.52
3  COc1nc(O[C@H]2CCc3c(-c4cccc(-c5ccc(CNC[C@@H]6CCC(=O)N6)c(Cl)c5)c4Cl)cccc32)c(Br)cc1CNC[C@@H]1CCC(=O)N1 [Example 791]             8.55
4  Cc1c(COc2cc(OCc3cncc(C#N)c3)c(CN[C@@](C)(CO)C(=O)O)cc2Cl)cccc1-c1cccc(-c2ccc3[nH]c([C@@H]4CCCN4)nc3c2)c1C [Example 299]             9.12
5  COc1nc(-c2cccc(-c3cccc(-c4ccn5cc(CN6CC7(CCC(=O)N7)C6)nc5c4)c3Cl)c2Cl)ccc1CN1CC2(CCC(=O)N2)C1 [Example 618]             9.65

----------
# tgt: PD-1/PD-L1 (Homo sapiens)
# measurement-protocol: PD-1/PD-L1 biochemical protein-protein interaction assay (ALPHA)
# setup-conditions: 0.3 nM His tagged PD-L1, 2.5 nM biotinylated Fc-PD-1, 60 minutes at 25° C., read-out: IC50 PD-L1-PD-1 Alpha IC50-mono PD-L1-fcP-D1
readout-type: log10 of IC50 (log10 of the value in pM)

molecule	log10 of IC50
COc1cc(-c2cccc(-c3cccc(-c4ccc(CNC[C@@H]5CCC(=O)N5)c(OC)c4)c3Br)c2Br)ccc1CNC[C@@H]1CCC(=O)N1 [Example 477]	3.02
COc1nc(O[C@H]2CCc3c(-c4cccc(-c5ccc(CNCCO)cc5)c4Cl)cccc32)c(Cl)cc1CNCCO [Example 772]	2.74
C[C@@](CO)(NCc1cc(Cl)c(O[C@H]2CCc3c(-c4cccc(-c5ccc(OCCNCCO)cc5)c4Cl)cccc32)nc1OCc1cc(C#N)cc(C#N)c1)C(=O)O [Example 332]	2.06
Cc1c(COc2cc(OCc3cncc(C#N)c3)c(CNC[C@@H](O)CC(=O)O)cc2Cl)cccc1-c1cccc(-c2ccc(C3=NCCN3)c(OCCCC#N)n2)c1C [Example 466]	1.81
Cc1nc(OCc2cccc(-c3cccc(COc4ccc(CNC[C@@H](O)CC(=O)O)c(C)n4)c3C)c2C)ccc1CNC[C@@H](O)CC(=O)O [Example 156]	3.36
COc1nc(O[C@H]2CCc3c(-c4cccc(-c5ccc(CNC[C@@H]6CCC(=O)N6)cc5)c4Cl)cccc32)c(Cl)cc1CN1CC2(CCC(=O)N2)C1 [Example 729]	2.97
N#Cc1cncc(COc2nc(O[C@H]3CCc4c(-c5cccc6c5CC[C@@H]6Oc5nc(OCc6cncc(C#N)c6)c(C6=NCCN6)cc5Br)cccc43)c(Br)cc2C2=NCCN2)c1 [Example 752]	2.89
COc1nc(-c2cccc(-c3cccc4c3CC[C@@H]4Oc3nc(OC)c(CN4CCC[C@@H](C(=O)O)C4)cc3Cl)c2Cl)ccc1CNC[C@@H]1CCC(=O)N1 [Example 758]	1.81
Cc1c(COc2cc(OCc3cncc(C#N)c3)c(CNCCO)cc2Cl)cccc1-c1cccc(-c2ccc(CNCCCC(=O)O)cc2)c1C [Example 334]	2.16
N#Cc1cncc(COc2cc(O[C@H]3CCc4c(-c5cccc(-c6ccc7sc(CNC[C@@H]8CCC(=O)N8)nc7c6)c5Cl)cccc43)c(Cl)cc2CNC[C@@H]2CCC(=O)N2)c1 [Example 801]	3.99
COc1nc(-c2cccc(-c3cccc4c3CC[C@@H]4Oc3nc(OC)c(CN4CC[C@H](C(=O)O)C4)cc3Cl)c2Cl)ccc1CN1CC2(CCC(=O)N2)C1 [Example 714]	1.81
COc1nc(O[C@H]2CCc3c(-c4cccc(-c5ccc6c(c5)C[C@@H](N)C6)c4Cl)cccc32)c(Br)cc1CNC[C@@H]1CCC(=O)N1 [Example 794]	3.24
